Measured IC50 values are reported for all entries that follow.
- System: U-937
- measurement description: Antiproliferative activity against human U937 cells by sulforhodamine B assay
- Assay type: functional, cell-based
measure name: IC50 (nM)

CC(=O)NCc1cn(Cc2cccc(Oc3ccccc3)c2)nn1	28000
COc1cc2c(cc1O)CC[C@@H]1[C@@H]2CC[C@]2(C)[C@@H](O)CC[C@@H]12	2910
O=C(NCc1cn(Cc2cccc(Oc3ccccc3)c2)nn1)c1ccccn1	580
COc1cc2c(c(OC)c1OC)-c1ccc(OC)c(=O)cc1[C@@H](NC(C)=O)CC2	8
